Provide the reported GI50 of each item.
Tested on: PANC-1
METHOD_DESCRIPTION: SRB colorimetric cell growth inhibition assay, PANC-1
Assay type: cell-based
CONDITION_SET: Homo sapiens, PANC-1, PANC-1; GI=growth inhibition; read-out: GI50 PANC-1

Q. Please give the documented GI50 of `COc1cc(-c2c3c4cc(OC)c(OC(=O)CCCCCN)cc4oc(=O)c3n3ccc4c(OC(=O)CCCCCN)c(OC)c(OC)cc4c23)ccc1OC(=O)CCCCCN`
A. 278 nM

Q. Please give the documented GI50 of `COc1cc2c(cc1OC)-c1c(-c3ccc(OC(=O)[C@H](C)NC(=O)OC(C)(C)C)c(OC)c3)c3c4cc(OC)c(OC(=O)[C@H](C)NC(=O)OC(C)(C)C)cc4oc(=O)c3n1CC2`
A. 514 nM

Q. Please give the documented GI50 of `COc1cc(-c2c3c4cc(OC)c(O)cc4oc(=O)c3n3ccc4cc(OC)c(OC)cc4c23)ccc1O`
A. 1070 nM

Q. Please give the documented GI50 of `COc1cc(-c2c3n(c4c(=O)oc5cc(OC(=O)[C@@H](N)C(C)C)c(OC)cc5c24)CCc2c-3cc(OC)c(OC)c2OC(=O)[C@@H](N)C(C)C)ccc1OC(=O)[C@@H](N)C(C)C`
A. 888 nM

Q. Please give the documented GI50 of `COc1cc2ccn3c(c(-c4ccc(OC(=O)[C@H](C)N)c(OC)c4)c4c5cc(OC)c(OC(=O)[C@H](C)N)cc5oc(=O)c43)c2cc1OC`
A. 1240 nM

Q. Please give the documented GI50 of `COc1cc(-c2c3c4cc(OC)c(OC(=O)[C@H](N)C(C)C)cc4oc(=O)c3n3ccc4c(OC(=O)[C@H](N)C(C)C)c(OC)c(OC)cc4c23)ccc1OC(=O)[C@H](N)C(C)C`
A. 1490 nM
